Quick reference for growth at 1 µM among some compounds
# Tested on: HOP-92
# PROTOCOL: Growth inhibition of human HOP-92 cells assessed as cell growth at 1 uM incubated for 48 hrs by sulforhodamine B assay relative to control
# Assay type: functional
# CONDITIONS_USED: read-out: Activity
Quick reminder: number only, in %, skip the unit.

Solved entries (count: 4):
Cc1cc(C)c(NC(=O)c2sc3nc4c(cc3c2N)CN(Cc2ccccc2)CC4)c(C)c1	49
CN1CCc2nc3sc(C(N)=O)c(N)c3c(-c3cccs3)c2C1	104
CCc1cccc(C)c1NC(=O)c1sc2nc3c(cc2c1N)C(=O)CCC3	39
Nc1c(C(=O)Nc2ccccc2)sc2nc3c(cc12)CN(Cc1ccccc1)CC3	74

Recorded growth at 1 µM of `Cc1ccc(NC(=O)c2sc3nc4c(cc3c2N)C(=O)CCC4)cc1C` , please.
29

Reference source for all entries: ChEMBL document CHEMBL4715736
